Experiment: BSK_3C_TissueFactor: BioMAP Diversity Plus: 3C Assay for Tissue Factor Biomarker Activity (AID 2282997)
Details: BioMAP 3C HUVEC, tissue factor biomarker readout; actives raise or lower the signal
Description: BSK_3C is a cell-based, multiplexed-readout assay that uses umbilical vein endothelium, a human vascular primary cell, with measurements taken at 24 hours after chemical dosing in a 96-well plate.BSK_3C_TissueFactor is an assay component measured in the BSK_3C assay. It measures Tissue Factor antibody related to regulation of gene expression using ELISA technology.Data from the assay component BSK_3C_TissueFactor was analyzed into 1 assay endpoint. […]
Calls of active or inactive are those of the source. The calls were made as follows: active = hit-call score of the fitted dose curve at least 0.9, where 1 is the maximum; inactive = score below 0.9.
Result category, one only: class 1 for active, class 0 for inactive

Q. For C[C@@H]1C[C@@H]([C@H](O)CC2CC(=O)NC(=O)C2)C(=O)[C@@H](C)C1 , what call appears in the results of this test?
A. class 1

Q. Could you check what this test reported for BrCCBr ?
A. class 0

Q. # outcome recorded in this test, key = O=C(O)C(Cl)(Cl)Cl
A. class 0

Q. What was the test verdict on O=[N+]([O-])c1ccc(O)c([N+](=O)[O-])c1 ?
A. class 0

Q. So what was the verdict on ClCC(Cl)CCl in this test?
A. class 0

Q. Assay result, entry C(=NC1CCCCC1)=NC1CCCCC1 — outcome?
A. class 1

Q. Assay outcome for Cc1ccccc1N : what was it?
A. class 0

Q. Identify the outcome logged in this assay for the compound shown: O=C1C2(Cl)C3(Cl)C4(Cl)C(Cl)(Cl)C5(Cl)C3(Cl)C1(Cl)C5(Cl)C24Cl (centres undefined)
A. class 1

Q. Given CC(=O)C(Cl)C(=O)N(C)C (centres undefined) , state the outcome it received in this test.
A. class 1

Q. What call does the record list for COP(=S)(OC)Oc1cc(Cl)c(Cl)cc1Cl ?
A. class 1

Q. Give the logged outcome of this assay for the following compound: CCOC(=O)/C=C(C)/C=C/C[C@@H](C)CCCC(C)C
A. class 1

Q. Outcome logged for C=C(C)C(=O)[O][Sn]([CH2]CCC)([CH2]CCC)[CH2]CCC in this assay:
A. class 1

Q. What outcome does the record of this test show for COC(=O)c1sccc1S(=O)(=O)NC(=O)Nc1nc(C)nc(OC)n1 ?
A. class 0

Q. GET /call?item= CC(C)(C)CC(C)(C)c1ccc(O)cc1 returns the recorded outcome of this test.
A. class 1

====

Biological target: Nuclear receptor subfamily 1 group I member 2 (Homo sapiens) (UniProt O75469)
Sequence (O75469 whole entry, looked up): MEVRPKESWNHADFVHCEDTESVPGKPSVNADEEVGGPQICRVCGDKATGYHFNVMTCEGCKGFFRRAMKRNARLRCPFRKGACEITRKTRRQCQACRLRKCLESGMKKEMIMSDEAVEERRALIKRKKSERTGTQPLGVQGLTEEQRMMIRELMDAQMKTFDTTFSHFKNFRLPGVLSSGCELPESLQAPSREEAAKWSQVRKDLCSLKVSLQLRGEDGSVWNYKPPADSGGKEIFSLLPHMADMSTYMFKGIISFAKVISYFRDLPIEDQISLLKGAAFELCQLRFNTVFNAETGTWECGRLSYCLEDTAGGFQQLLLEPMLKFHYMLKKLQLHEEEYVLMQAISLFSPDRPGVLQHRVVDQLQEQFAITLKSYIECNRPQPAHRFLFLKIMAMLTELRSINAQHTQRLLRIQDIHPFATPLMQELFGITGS
Experiment: NVS_NR_hPXR: NovaScreen (NVS) Nuclear Receptor Binding Assay for human Pregnane X Receptor (PXR) (AID 2283365);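 also: a drop in FRET signal versus DMSO baseline means the compound binds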
Inconclusive results are not listed. Active and inactive are the calls of the source. How the source made its calls: active means hit-call score of the fitted dose curve at least 0.9, where 1 is the maximum; inconclusive means response in the unintended direction; inactive means score below 0.9.
Permitted responses: true (active), false (inactive)

Q. // return assay outcome for C[C@@H]1C[C@@H]([C@H](O)CC2CC(=O)NC(=O)C2)C(=O)[C@@H](C)C1
A. false

Q. What outcome does the record of this test show for O=C1C2(Cl)C3(Cl)C4(Cl)C(Cl)(Cl)C5(Cl)C3(Cl)C1(Cl)C5(Cl)C24Cl (stereo not given) ?
A. false

Q. Per the assay record, what outcome was assigned to CCOP(=S)(OCC)Oc1nc(Cl)c(Cl)cc1Cl ?
A. false

Q. Name the outcome recorded for C1CCC(NC2CCCCC2)CC1 in the assay.
A. false

Q. Record lookup: outcome of this test for NNC(=S)NN ?
A. false

Q. What did this assay record as the result for COc1cc(OC)nc(NC(=O)NS(=O)(=O)c2ncccc2C(=O)N(C)C)n1 ?
A. false

Q. For this compound, state the assay outcome: Fc1ccc(C2(Cn3cncn3)OC2c2ccccc2Cl)cc1 (stereo not given)
A. false

Q. Outcome? C[C@]12CC[C@H](O)CC1=CC[C@@H]1[C@@H]2CC[C@]2(C)C(=O)CC[C@@H]12
A. false

Q. I would be grateful if you could indicate the recorded call for CC(=O)[O][Hg][c]1ccccc1 .
A. true

Q. Outcome? Cc1ccccc1N
A. false

Q. // param item: COP(=O)(OC)O/C(=C\Cl)c1cc(Cl)c(Cl)cc1Cl ; yields the recorded call
A. true

Q. Please indicate how the test categorized C=C(C)C(=O)[O][Sn]([CH2]CCC)([CH2]CCC)[CH2]CCC .
A. false

Q. Tell me the assay call for C[C@H]1CCCC(=O)CCC/C=C/c2cc(O)cc(O)c2C(=O)O1 please.
A. true

Q. Outcome logged for Clc1ccc(COC(Cn2ccnc2)c2ccc(Cl)cc2Cl)cc1 (stereo not given) in this assay:
A. true

Q. Test call, this compound: CCOP(=S)(OCC)SCSP(=S)(OCC)OCC
A. false

Just for reference, PubChem BioAssay (EPA / NIEHS) is where these values come from.
